- Measurement target: N-terminal CRD of hGalectin-4 (Gal-4N) (Homo sapiens, UniProt P56470)
- Construct: N-terminal CRD of hGalectin-4 (amino acids 1–150, including an additional C-terminus His-Tag); His-Tag (C, cleaved yes); made in house; host or cells: E. coli BL21 (pET29b)
- Sequence (P56470 1-150): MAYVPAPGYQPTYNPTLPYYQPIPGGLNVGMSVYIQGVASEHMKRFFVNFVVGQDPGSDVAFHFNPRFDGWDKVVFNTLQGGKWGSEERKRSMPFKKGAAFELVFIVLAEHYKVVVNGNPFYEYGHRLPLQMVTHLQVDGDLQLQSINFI
- Method: 1H Saturation Transfer Difference (STD) NMR epitope mapping
- Format: binding
- Details: 1H-residue H1Galβ
- Procedure: ^1H-saturation transfer difference NMR spectra were acquired for mixtures of Gal-4N (50 μM) with a 50-fold excess of ligand. Protein aromatic irradiation afforded the best STD intensities and thus these are discussed henceforth. The STD NMR spectra were very similar among the different ligands with respect to both the observed glycan protons and their intensities. […]
Metric name: STD% (%)
Quick note: give the figure in %, leave out the unit.

Sample records with STD%:
1) CC1OC(OC2C(OC3C(CO)OC(O)C(O)C3O)OC(CO)C(O)C2OC2OC(CO)C(O)C(O)C2O)C(O)C(O)C1O (stereo not drawn) = 80
2) CC(=O)N[C@H]1[C@@H](O[C@H]2[C@@H](O)[C@@H](CO)O[C@@H](O[C@H]3[C@@H](O)[C@@H](CO)O[C@@H](O[C@@H]4[C@@H](O)[C@H](O)O[C@H](CO)[C@@H]4O)[C@@H]3NC(C)=O)[C@@H]2O[C@@H]2O[C@@H](C)[C@@H](O)[C@@H](O)[C@@H]2O)O[C@H](CO)[C@H](O)[C@@H]1O = 61
3) CC(=O)NC1C(OC2C(O)C(O)OC(CO)C2O)OC(CO)C(O)C1OC1OC(CO)C(O)C(OC2OC(CO)C(O)C(O)C2O)C1OC1OC(C)C(O)C(O)C1O (stereo not drawn) = 49
4) CC(=O)NC1C(OC2C(O)C(CO)OC(OC3C(CO)OC(O)C(O)C3O)C2OC2OC(C)C(O)C(O)C2O)OC(CO)C(O)C1O (stereo not drawn) = 58
5) CC(=O)N[C@@H]1[C@@H](O[C@@H]2O[C@H](CO)[C@H](O)[C@H](O[C@H]3O[C@H](CO)[C@H](O)[C@H](O)[C@H]3O)[C@H]2O[C@@H]2O[C@@H](C)[C@@H](O)[C@@H](O)[C@@H]2O)[C@H](O)[C@@H](CO)O[C@H]1O = 70

Next up:
Tested system N-terminal CRD of hGalectin-4 (Gal-4N) (Homo sapiens, UniProt P56470); STD% recorded for CC(=O)NC1C(O)OC(CO)C(OC2OC(CO)C(O)C(OC3OC(CO)C(O)C(O)C3O)C2OC2OC(C)C(O)C(O)C2O)C1O (stereo not drawn) was 59

###

Listed here: items and their measured STD-AF.
- Measurement target: N-terminal CRD of hGalectin-4 (Gal-4N) (Homo sapiens)
- Construct: N-terminal CRD of hGalectin-4 (amino acids 1–150, including an additional C-terminus His-Tag); His-Tag (C, cleaved yes); made in house; host or cells: E. coli BL21 (pET29b)
- Method: 1H Saturation Transfer Difference (STD) NMR epitope mapping
- Format: binding
- Details: 1H-residue H3Galβ
Respond with the number and no other words.

1) CC1OC(OC2C(OC3C(CO)OC(O)C(O)C3O)OC(CO)C(O)C2OC2OC(CO)C(O)C(O)C2O)C(O)C(O)C1O (stereo not shown) [B type-6 (tetra)] = 0.0108
2) CC(=O)NC1C(OC2C(O)C(CO)OC(OC3C(CO)OC(O)C(O)C3O)C2OC2OC(C)C(O)C(O)C2O)OC(CO)C(O)C1O (stereo not shown) [A type-6 (tetra)] = 0.0061
3) CC(=O)N[C@H]1[C@@H](O[C@H]2[C@@H](O)[C@@H](CO)O[C@@H](O[C@H]3[C@@H](O)[C@@H](CO)O[C@@H](O[C@@H]4[C@@H](O)[C@H](O)O[C@H](CO)[C@@H]4O)[C@@H]3NC(C)=O)[C@@H]2O[C@@H]2O[C@@H](C)[C@@H](O)[C@@H](O)[C@@H]2O)O[C@H](CO)[C@H](O)[C@@H]1O [A type-4 (penta)] = 0.0032

The measured STD-AF associated with CC(=O)NC1C(O)OC(CO)C(OC2OC(CO)C(O)C(OC3OC(CO)C(O)C(O)C3O)C2OC2OC(C)C(O)C(O)C2O)C1O (stereo not shown) [B type-2 (tetra)] reads 0.0054
